System: Staph. aureus A-9537 and 50% serum
assay explanation: MIC, tube dilution, Staph. aureus A9537 + 50% serum
Format: cell-based, Staphylococcus aureus
settings: Staphylococcus aureus, overnight 37° C., read-out: Minimum Inhibitory Concentration (M.I.C.)

{"compound": "CSc1nnc(C2=C(C(=O)O)N3C(=O)CC3S2)o1 (centres unmarked)", "MIC": "> 63 µg/mL"}
{"compound": "CC1=C(C(=O)O)N2C(=O)[C@H](C(C)(C)O)[C@H]2S1 (relative stereo)", "MIC": "32 µg/mL"}
{"compound": "NCc1ccc(C2=C(C(=O)O)N3C(=O)CC3S2)cc1 (centres unmarked)", "MIC": "2 µg/mL"}
{"compound": "COCOC[C@H](O)[C@H]1C(=O)N2C(C(=O)O)=C(C)S[C@H]12 (relative stereo)", "MIC": "> 32 µg/mL"}
{"compound": "CCCC(N)C1=C(C(=O)O)N2C(=O)CC2S1 (centres unmarked)", "MIC": "4 µg/mL"}
{"compound": "CC(N)C1=C(C(=O)O)N2C(=O)CC2S1 (centres unmarked)", "MIC": "63 µg/mL"}
{"compound": "O=C([O-])C1=C(c2ccccc2)S[C@@H]2CC(=O)N12.[Na+] [Preparation 7, Sodium 2-Phenylpenem-3-carboxylate]", "MIC": "> 63 µg/mL"}
{"compound": "O=C(O)C1=C(C2CCC2)SC2CC(=O)N12 (centres unmarked)", "MIC": "> 63 µg/mL"}
{"compound": "O=C(O)C1=C(Cc2cscn2)SC2CC(=O)N12 (centres unmarked)", "MIC": "> 63 µg/mL"}
{"compound": "COCOC[C@@H](O)[C@H]1C(=O)N2C(C(=O)O)=C(C)S[C@H]12 (relative stereo)", "MIC": "> 32 µg/mL"}
{"compound": "CC(C)(C)CC1=C(C(=O)O)N2C(=O)CC2S1 (centres unmarked)", "MIC": "> 63 µg/mL"}
{"compound": "Cn1cc(C2=C(C(=O)O)N3C(=O)CC3S2)cn1 (centres unmarked)", "MIC": "> 63 µg/mL"}
{"compound": "NCCC1=C(C(=O)O)N2C(=O)CC2S1 (centres unmarked)", "MIC": "16 µg/mL"}
{"compound": "CCCCCC1=C(C(=O)[O-])N2C(=O)C[C@H]2S1.[K+] [Preparation 16, Potassium 2-Pentylpenem-3-carboxylate]", "MIC": "> 63 µg/mL"}
{"compound": "CC(=O)OCC1=C(C(=O)[O-])N2C(=O)C[C@H]2S1.[Na+]", "MIC": "> 63 µg/mL"}
{"compound": "CC1=C(C(=O)O)N2C(=O)[C@H]([C@@H](C)N)[C@H]2S1 (relative stereo)", "MIC": "> 32 µg/mL"}
{"compound": "Nc1ccccc1CC1=C(C(=O)O)N2C(=O)CC2S1 (centres unmarked)", "MIC": "63 µg/mL"}

All figures here come from patent US4272437A.
